System: PPARg:RXRa 270nM:90nM, anti-RXR (NR concentration 270 nM, RXRa partner concentration 90 nM)
Assay: PBM binding z-score (relative to random genomic background probes); higher = stronger binding; sequences stand for … in GC…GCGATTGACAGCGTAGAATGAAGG
Label TRUE when PBM binding z-score >= 1; otherwise FALSE.

{"columns": ["construct_sequence", "label"],
 "data": [
  ["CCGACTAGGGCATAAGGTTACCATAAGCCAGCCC", "TRUE"],
  ["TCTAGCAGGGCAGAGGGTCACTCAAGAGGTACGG", "TRUE"],
  ["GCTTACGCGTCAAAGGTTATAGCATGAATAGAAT", "TRUE"],
  ["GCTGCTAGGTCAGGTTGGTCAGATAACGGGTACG", "TRUE"],
  ["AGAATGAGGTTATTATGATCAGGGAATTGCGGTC", "TRUE"],
  ["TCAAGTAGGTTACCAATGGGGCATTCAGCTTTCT", "TRUE"],
  ["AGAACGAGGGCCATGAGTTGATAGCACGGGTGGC", "FALSE"],
  ["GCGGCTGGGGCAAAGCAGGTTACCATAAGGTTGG", "FALSE"],
  ["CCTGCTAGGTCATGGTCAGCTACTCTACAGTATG", "TRUE"],
  ["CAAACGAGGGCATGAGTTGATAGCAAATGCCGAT", "TRUE"],
  ["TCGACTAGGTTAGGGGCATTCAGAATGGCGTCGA", "TRUE"],
  ["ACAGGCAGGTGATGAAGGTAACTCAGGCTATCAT", "FALSE"],
  ["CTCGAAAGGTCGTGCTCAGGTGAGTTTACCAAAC", "TRUE"],
  ["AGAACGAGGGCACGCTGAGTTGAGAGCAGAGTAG", "TRUE"],
  ["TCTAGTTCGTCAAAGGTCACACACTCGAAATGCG", "TRUE"],
  ["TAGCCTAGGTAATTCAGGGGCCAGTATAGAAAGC", "FALSE"],
  ["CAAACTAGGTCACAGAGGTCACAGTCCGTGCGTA", "TRUE"],
  ["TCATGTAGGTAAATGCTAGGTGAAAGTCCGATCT", "TRUE"],
  ["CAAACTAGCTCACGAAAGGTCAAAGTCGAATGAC", "TRUE"],
  ["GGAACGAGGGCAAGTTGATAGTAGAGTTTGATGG", "FALSE"],
  ["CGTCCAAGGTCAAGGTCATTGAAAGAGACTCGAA", "TRUE"],
  ["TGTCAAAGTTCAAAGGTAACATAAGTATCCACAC", "TRUE"],
  ["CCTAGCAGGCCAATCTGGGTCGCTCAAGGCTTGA", "FALSE"],
  ["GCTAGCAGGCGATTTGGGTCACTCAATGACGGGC", "FALSE"],
  ["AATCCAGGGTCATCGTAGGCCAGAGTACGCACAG", "TRUE"],
  ["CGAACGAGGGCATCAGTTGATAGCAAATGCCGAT", "FALSE"],
  ["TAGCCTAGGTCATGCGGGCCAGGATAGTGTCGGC", "TRUE"],
  ["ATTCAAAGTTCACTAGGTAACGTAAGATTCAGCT", "TRUE"],
  ["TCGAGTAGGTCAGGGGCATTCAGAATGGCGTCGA", "TRUE"],
  ["CTCGAAAGGTCGTGCTGAGGTGAGTATACCAAAC", "TRUE"],
  ["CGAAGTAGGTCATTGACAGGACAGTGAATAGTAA", "TRUE"],
  ["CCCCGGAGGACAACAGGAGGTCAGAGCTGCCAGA", "FALSE"],
  ["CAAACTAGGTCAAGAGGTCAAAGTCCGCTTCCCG", "TRUE"],
  ["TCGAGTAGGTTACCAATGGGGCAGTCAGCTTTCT", "TRUE"],
  ["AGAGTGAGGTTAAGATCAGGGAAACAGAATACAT", "TRUE"],
  ["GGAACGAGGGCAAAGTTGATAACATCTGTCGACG", "TRUE"],
  ["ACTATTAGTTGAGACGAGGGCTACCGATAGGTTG", "FALSE"],
  ["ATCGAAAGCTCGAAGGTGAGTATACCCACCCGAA", "FALSE"],
  ["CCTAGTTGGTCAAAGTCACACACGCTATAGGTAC", "TRUE"],
  ["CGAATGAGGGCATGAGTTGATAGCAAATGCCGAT", "TRUE"],
  ["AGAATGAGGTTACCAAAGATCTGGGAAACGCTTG", "TRUE"],
  ["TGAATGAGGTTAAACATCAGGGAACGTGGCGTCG", "TRUE"],
  ["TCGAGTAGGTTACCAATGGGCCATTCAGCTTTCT", "TRUE"],
  ["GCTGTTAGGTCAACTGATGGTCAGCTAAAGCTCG", "TRUE"],
  ["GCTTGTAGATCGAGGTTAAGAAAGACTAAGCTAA", "FALSE"],
  ["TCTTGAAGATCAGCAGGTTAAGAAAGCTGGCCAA", "TRUE"],
  ["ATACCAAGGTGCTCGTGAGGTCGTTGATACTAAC", "FALSE"],
  ["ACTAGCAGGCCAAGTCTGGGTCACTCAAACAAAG", "TRUE"],
  ["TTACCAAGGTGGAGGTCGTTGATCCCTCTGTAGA", "TRUE"]
]}
